Give EC50 for every item shown.
assay: viability of HCT116 lacking mutant beta-catenin – cell-based, human colon tumor, dose response (AID 1045); type: functional;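 also: HCT116 colon tumor cells with beta catenin knocked out; cells exposed to compound for 60 hours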
Active and inactive are the calls of the source. No rule for the calls is given here.

Inquiry: // returns reported EC50 for input N#CC(c1cccc(Cl)c1)c1ccc2c(C(F)(F)F)cc(C(F)(F)F)nc2n1 (centres undefined)
Reply text: 0.267 µM (active)

Inquiry: I have this compound here, CCOc1ccc(CCNc2ccc3nnc(-c4ccccc4)n3n2)cc1OCC , and I need its recorded EC50.
Reply text: 26.3 µM (active)

Inquiry: Field request: EC50 | item: O=C(N/N=C/c1ccc(Cl)cc1)c1cc2c(s1)-c1ccccc1CC2
Reply text: 10.5 µM (active)

Inquiry: Consider the compound shown here: CCC(C)NC(=O)c1c(N)n(/N=C/c2ccccn2)c2nc3ccccc3nc12 (centres undefined) What is its recorded EC50?
Reply text: 30.2 µM (active)

---

Give IC50 for every item shown.
Molecular target: Leucine aminopeptidase (Plasmodium falciparum 3D7)
Sequence (Q8IL11 whole entry): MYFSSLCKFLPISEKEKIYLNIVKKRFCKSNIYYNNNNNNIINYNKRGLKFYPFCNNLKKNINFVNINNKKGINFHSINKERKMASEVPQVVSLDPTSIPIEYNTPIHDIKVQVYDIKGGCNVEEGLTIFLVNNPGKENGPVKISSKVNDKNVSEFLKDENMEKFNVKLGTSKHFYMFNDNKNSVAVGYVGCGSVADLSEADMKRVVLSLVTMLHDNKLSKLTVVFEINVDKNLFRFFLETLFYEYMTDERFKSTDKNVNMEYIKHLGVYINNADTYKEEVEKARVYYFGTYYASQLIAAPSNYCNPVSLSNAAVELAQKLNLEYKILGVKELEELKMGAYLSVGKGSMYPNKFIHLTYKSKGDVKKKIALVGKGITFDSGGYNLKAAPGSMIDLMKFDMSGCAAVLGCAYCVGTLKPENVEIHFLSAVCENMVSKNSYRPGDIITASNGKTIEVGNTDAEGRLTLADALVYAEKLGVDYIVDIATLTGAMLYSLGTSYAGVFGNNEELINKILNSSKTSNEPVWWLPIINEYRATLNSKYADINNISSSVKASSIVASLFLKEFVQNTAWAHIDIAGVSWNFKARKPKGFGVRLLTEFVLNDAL
Experiment: P. falciparum M17LAP inhibitors, primary screen, biochemical, fluorogenic H-Leu-NHMec substrate, 1536-well (AID 1619)
Assay type: functional
Calls of active or inactive are those of the source. The rule behind the calls is not given here.

Inquiry: What value of measured IC50 is listed for COc1ccc(NC(=O)CSc2c(C)nn(-c3nnc(C)c(=O)[nH]3)c2C)cc1 ?
Reply text: 83.7 µM (active)

Inquiry: Any idea what IC50 was measured for CCOC(=O)c1cccc(NC(=O)CSc2nc(N)cc(N)n2)c1 ?
Reply text: 13.8 µM (active)

Inquiry: Could you tell me which IC50 is on file for CCOC(=O)C1=C(Nc2ccc(OC)cc2)S/C(=C\c2ccc(OCC(=O)O)c(OCC)c2)C1=O ?
Reply text: 21.3 µM (active)

Inquiry: Consider the compound Cc1ccc(-n2c(C)cc(C(=O)COC(=O)c3ccc[nH]c3=O)c2C)cc1C and give its measured IC50.
Reply text: 1.45 µM (active)

Inquiry: What IC50 value was documented for this compound, CC1=C(C)CC(C(=O)Nc2cccc([N+](=O)[O-])c2)C(C(=O)O)C1 (centres undefined) ?
Reply text: 6.42 µM (active)

Inquiry: Reported IC50, compound O=C(CSc1nccc(O)n1)Nc1ccc(Br)c(Cl)c1 : ____
Reply text: 2.5 µM (active)

Inquiry: For the compound CSc1nnc(-c2ccccc2/N=C/c2c(C)nn(-c3ccccc3)c2O)c(O)n1 , what IC50 is on record?
Reply text: 48.6 µM (active)

Inquiry: Which IC50 reading was recorded for the compound CCN(CC)c1ccc(NC(=O)Cn2cc3c(n2)CCC(C)C3)c(C)c1 (centres undefined) ?
Reply text: 6.41 µM (active)

Inquiry: Give the measured IC50 of O=C(O)C/C(=C\c1ccc(Cl)cc1)c1nc2ccccc2o1 .
Reply text: 105 µM (active)
